Where do these numbers come from? They come from patent US20240099344A1.

Test system: human sensory panel (bitter and astringent taste)
Test: Sensory testing in applications (human sensory panel, 8 experts)
Assay type: in vivo
Conditions: 10 ppm in smart protein beverage; scale of −5 (strong masking) to 5 (strong enhancing); 0 = reference application
MEASUREMENT TYPE: Smart Protein Beverage Astringent

COMPOUND: COc1ccc(-c2oc3cc(OC)c(OC)c(O)c3c(=O)c2OC)cc1O [Compound 108]
MEASUREMENT TYPE: Smart Protein Beverage Astringent
ASSAY VALUE: −0.33
--
COMPOUND: O=c1cc(-c2ccc(O)cc2)oc2cc(O)c(O)c(O)c12 [Compound 103, 5,6,7,4′-tetrahydroxyflavone]
MEASUREMENT TYPE: Smart Protein Beverage Astringent
ASSAY VALUE: 0.25
--
COMPOUND: COc1ccc(-c2cc(=O)c3c(O)c(OC)c(O)c(OC)c3o2)cc1 [Compound 101, 5,7-dihydroxy-6,8,4′-trimethoxyflavone]
MEASUREMENT TYPE: Smart Protein Beverage Astringent
ASSAY VALUE: 0.4

# ---- query compound ----
Q: Look up and report measured Smart Protein Beverage Astringent for this entry: COc1ccc(-c2cc(=O)c3c(O)c(OC)c(O)cc3o2)cc1OC [Compound 105, 5,7-dihydroxy-6,3′,4′-trimethoxyflavone]
Result: −1.0
